10mM inhibition L. major values by entry
# Tested on: L. major (FV1) promastigotes
# Assay Overview: Antipromastigote resazurin assay, L. major (FV1) wild type
# Type: cell-based, Leishmania major
# Assay Setup: NINDS set screen against L. major promastigotes, single concentration printed as 10mM

1) CCCCOc1ccc(OCCCN2CCOCC2)cc1 [PRAMOXINE] ... <5%
2) CO[C@]12C[C@@H](COC(=O)c3cncc(Br)c3)CN(C)[C@@H]1Cc1cn(C)c3cccc2c13 [NICERGOLINE] ... <5%
3) C=C[C@H]1C[N@@]2CC[C@H]1C[C@H]2[C@H](O)c1ccnc2ccc(OC)cc12 [QUININE] ... <5%
4) O=c1[nH]c2ccccc2n1C1CCN(CCCC(c2ccc(F)cc2)c2ccc(F)cc2)CC1 [pimozide 10, pimozide, reference compound] ... 56%
5) Cc1cccc(CN2CCN(C(c3ccccc3)c3ccc(Cl)cc3)CC2)c1 (stereo not drawn) [MECLIZINE] ... <5%
6) CC(C)=CCc1c2c(c3occ(-c4ccc(O)c(O)c4)c(=O)c3c1O)C=CC(C)(C)O2 [POMIFERIN] ... <5%
7) COc1ccccc1OCCNCC(O)COc1cccc2[nH]c3ccccc3c12 (stereo not drawn) [CARVEDILOL] ... <5%
8) CCC(=O)O[C@H]1CC[C@H]2[C@@H]3CCc4cc(O)ccc4[C@H]3CC[C@]12C [ESTRADIOL PROPIONATE] ... <5%
9) NC[C@@H]1O[C@H](O[C@H]2[C@@H](O)[C@H](O[C@@H]3[C@@H](O)[C@H](N)C[C@H](N)[C@H]3O[C@H]3O[C@H](CN)[C@@H](O)[C@H](O)[C@H]3N)O[C@@H]2CO)[C@H](N)[C@@H](O)[C@@H]1O [NEOMYCIN] ... <5%
10) Cc1cc(N)c2ccccc2[n+]1CCCCCCCCCC[n+]1c(C)cc(N)c2ccccc21 ... <5%

Please report the measured 10mM inhibition L. major for CN(C)CCCN1c2ccccc2Sc2ccccc21 [PROMAZINE] tested on L. major (FV1) promastigotes.
<5%

Fill: 10mM inhibition L. major (L. major (FV1) promastigotes) for this molecule CCCCCCCCCCCCCCCC[N+](C)(C)C [CETRIMONIUM]
<5%

Write down measured 10mM inhibition L. major (L. major (FV1) promastigotes) for this molecule. O=C1c2c(O)cccc2Cc2cccc(O)c21 [ANTHRALIN]
<5%

Find 10mM inhibition L. major for C=CC1=C(C)c2cc3[nH]c(cc4nc(cc5[nH]c(cc1n2)c(C)c5CCC(=O)O)C(CCC(=O)O)=C4C)c(C)c3C=C [PROTOPORPHYRIN IX] on L. major (FV1) promastigotes and write it down.
<5%

Report value: 10mM inhibition L. major, system: L. major (FV1) promastigotes, molecule: C[C@]12CC[C@@H]3c4ccc(O)cc4CC[C@H]3[C@@H]1CC[C@@H]2OC(=O)CCC1CCCC1 [ESTRADIOL CYPIONATE]
<5%

Jot down 10mM inhibition L. major (L. major (FV1) promastigotes) of CC(C)CC(N(C)C)C1(c2ccc(Cl)cc2)CCC1 (stereo not drawn) [SIBUTRAMINE] .
<5%

Tell me its 10mM inhibition L. major on L. major (FV1) promastigotes: CC(CN1c2ccccc2Sc2ccccc21)N(C)C (stereo not drawn) [PROMETHAZINE]
<5%
